Target: hTRPV3 (Homo sapiens (Human))
Assay: Whole-cell patch clamp, hTRPV3 Phase 1 / Phase 2 currents
Format: cell-based
Settings: Phase 1 current; read-out: hTRPV3 (nM) (Phase 1)
Where a name gives a salt, the structure may show the parent alone.
Output schema: class label derived from IC50. Mapping: lowest = under 300 nM, middle = from 300 nM up to 900 nM, highest = 900 nM and over

Look over these answered cases.
NCc1cc(-c2ccccc2Cl)ccc1N1CC[C@H](Oc2ncccc2Cl)C1 [Compound 1-122, hydrochloride]    highest
Cc1ccc(O[C@H]2CCN(c3ccc(-c4ccccc4C)nc3CO)C2)nc1    middle
CC(C)(C)OC(=O)NCc1ccc(-c2ccc(N3CC[C@H](Oc4ccc(C(F)(F)F)cn4)C3)c(CO)c2)cc1    highest
Cc1cccnc1CO[C@H]1CCN(c2ccc(-c3ccccc3)cc2CO)C1    highest
FC(F)(F)c1ccc(O[C@@H]2CCN(c3ccccc3-c3ccccc3)C2)nc1    highest
OCCOc1cc(-c2ccccc2)ccc1N1CC[C@H](Oc2ccc(C(F)(F)F)cn2)C1    middle

Request: Hi there! Could you help me figure out the category for `Cc1ccc(O[C@H]2CCN(c3ccc(Oc4ccccc4)nc3CO)C2)nc1` please?
Response: highest

###

Hi there, I'd appreciate the recorded pIC50 for every entry that follows.
Biological target: hTRPV3 (Homo sapiens (Human))
Assay: Whole-cell patch clamp, hTRPV3 Phase 1 / Phase 2 currents
Type: cell-based
Conditions: Phase 1 current, inward, whole-cell patch clamp; read-out: hTRPV3 Patch P1 Inwd
pIC50: −log10 of the molar value. Counter-ions that a name gives are not always drawn.

Worked examples, 3 compounds total:
O=C(c1cc(Cl)ccn1)N1CCC(c2ccc(-c3ccccc3C3CC3)cc2CO)C1 (stereo not shown) [Compound 2-60]    7.00 to 8.00
OCc1cc(-c2ccccc2C(F)(F)F)ccc1N1CC[C@H](Oc2ccc(C(F)(F)F)cn2)C1 [Compound 1-152]    7.00 to 8.00
NC(=O)c1cc(-c2ccccc2)ccc1N1CC[C@H](Oc2ccc3cc(Cl)ccc3n2)C1 [Compound 1-67]    < 6.00

Request: Indicate the recorded pIC50 value for this compound: Cc1cccnc1CN1CCC(c2ccc(Oc3ccccc3C(C)C)cc2CO)C1 (stereo not shown) [Compound 2-89, hydrochloride]
Response: < 6.00

###

Molecular target: hTRPV3 (Homo sapiens (Human), UniProt Q8NET8)
Sequence (Q8NET8 whole entry): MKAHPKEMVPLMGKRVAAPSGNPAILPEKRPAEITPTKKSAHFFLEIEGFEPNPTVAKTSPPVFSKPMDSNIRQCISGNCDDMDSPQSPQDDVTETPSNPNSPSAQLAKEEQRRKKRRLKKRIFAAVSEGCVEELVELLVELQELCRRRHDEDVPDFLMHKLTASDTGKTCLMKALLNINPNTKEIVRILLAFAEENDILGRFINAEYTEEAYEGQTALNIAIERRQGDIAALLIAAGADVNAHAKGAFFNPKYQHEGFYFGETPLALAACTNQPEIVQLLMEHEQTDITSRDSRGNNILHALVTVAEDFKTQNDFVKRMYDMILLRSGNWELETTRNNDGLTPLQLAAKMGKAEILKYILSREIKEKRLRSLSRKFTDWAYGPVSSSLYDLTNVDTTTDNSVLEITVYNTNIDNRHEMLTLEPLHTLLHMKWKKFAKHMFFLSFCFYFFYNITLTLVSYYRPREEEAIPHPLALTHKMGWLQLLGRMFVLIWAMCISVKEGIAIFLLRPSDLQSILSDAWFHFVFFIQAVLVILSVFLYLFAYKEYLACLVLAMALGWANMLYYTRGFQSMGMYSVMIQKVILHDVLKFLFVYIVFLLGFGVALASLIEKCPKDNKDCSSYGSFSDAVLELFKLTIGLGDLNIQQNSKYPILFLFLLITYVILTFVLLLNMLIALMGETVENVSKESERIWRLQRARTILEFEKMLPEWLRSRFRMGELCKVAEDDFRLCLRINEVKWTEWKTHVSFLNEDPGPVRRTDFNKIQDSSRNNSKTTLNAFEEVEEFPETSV
Assay: Whole-cell patch clamp, hTRPV3 Phase 1 / Phase 2 currents
Type: cell-based
Settings: Phase 1 current, human TRPV3; read-out: hTRPV3 (nM) Phase 1
Provide the recorded IC50 for the entries that follow.

Below are 2 molecules. Give each one its IC50.
1. CCc1ccccc1Oc1ccc(C2CC(=O)N(Cc3ccc(Cl)cn3)C2)c(C(N)=O)c1 (stereo not drawn)
2. CC(C)c1ccccc1Oc1ccc(C2CCN(C(=O)c3ncccc3F)C2)c(C(N)=O)c1 (stereo not drawn)

Response:
> 3200 nM
~2250 nM

Request: Specify measured IC50 for CCc1ccccc1Oc1ccc(C2CC(=O)N(Cc3cccc(C)n3)C2)c(C(N)=O)c1 (stereo not drawn) .
Response: > 3200 nM

###

Biological target: hTRPV3 (Homo sapiens (Human), UniProt Q8NET8)
Assay: Whole-cell patch clamp, hTRPV3 Phase 1 / Phase 2 currents
Type: cell-based
Conditions: Phase 1 current, inward, whole-cell patch clamp; read-out: hTRPV3 Patch P1 Inwd
pIC50: −log10 of the molar value.
property.label: pIC50

O=C(c1ccc(F)cc1)c1ccc(N2CC[C@H](Oc3ncccc3F)C2)c(CO)c1 [Compound 1-293]    6.00 to 7.00
OCCc1cc(-c2ccccc2)ccc1N1CC[C@H](Oc2ccc(C(F)(F)F)cn2)C1 [Compound 1-142]    6.00 to 7.00
NC(=O)c1cc(-c2ccccn2)ccc1N1CC[C@H](Nc2ccc(C(F)(F)F)cn2)C1 [Compound 1-376]    < 6.00
Cc1ccccc1Oc1ccc(N2CC[C@H](Nc3ncccc3Cl)C2)c(CO)c1 [Compound 1-383]    7.00 to 8.00
NC(=O)c1cc(Oc2ccccc2Cl)ccc1N1CC[C@H](Oc2ncccc2Cl)C1 [Compound 1-181]    6.00 to 7.00
CC(C)c1ccccc1-c1ccc(C2CCN(C(=O)c3cc(Cl)ccn3)C2)c(CO)c1 (stereo not shown) [Compound 2-49]    7.00 to 8.00
NC(=O)c1cc(-c2ccccc2)ccc1N1CC[C@@H](Oc2ccc(C(F)(F)F)cn2)C1 [Compound 1-33]    6.00 to 7.00
NC(=O)c1cc(-c2ccccc2)cnc1N1CC[C@@H](Nc2ccc(C(F)(F)F)cn2)C1 [Compound 1-378]    < 6.00
CC(C)c1ccccc1Oc1ccc(C2CC(=O)N(Cc3ccccn3)C2)c(CO)c1 (stereo not shown) [Compound 2-93]    6.00 to 7.00
NC(=O)c1ccccc1N1CCC(Oc2ccc3ccccc3n2)C1=O (stereo not shown) [Compound 1-105]    < 6.00

Please state, for each entry, its recorded pIC50.
1. OCc1nc(Oc2ccccc2)ccc1N1CC[C@H](Oc2ccc(C(F)(F)F)cn2)C1 [Compound 1-139]
2. O=C(O)c1cc(-c2ccccc2Cl)ccc1N1CC[C@H](Oc2ccc(C(F)(F)F)cn2)C1 [Compound 1-166]
3. OCc1nc(-c2ccccc2)ccc1N1C[C@@H](O)[C@H](Oc2ccc(C(F)(F)F)cn2)C1 [Compound 1-323]
4. NC(=O)c1cc(-c2ccccn2)ccc1N1CC[C@H](Oc2ccc(C(F)(F)F)cn2)C1 [Compound 1-81]
5. CC(C)(C)NS(=O)(=O)c1cc(-c2ccccc2)ccc1N1CCC(Oc2ccc(C(F)(F)F)cn2)C1 (stereo in doubt) [Compound 1-96]
6. N#Cc1cc(C(F)(F)F)ccc1N1CC[C@H](Oc2ccc(C(F)(F)F)cn2)C1 [Compound 1-57]

Response:
1: 7.00 to 8.00; 2: < 6.00; 3: < 6.00; 4: < 6.00; 5: < 6.00; 6: 6.00 to 7.00

###

Target: hTRPV3 (Homo sapiens (Human), UniProt Q8NET8)
Assay: Whole-cell patch clamp, hTRPV3 Phase 1 / Phase 2 currents
Format: cell-based
Conditions: Phase 2 current, inward, whole-cell patch clamp; read-out: hTRPV3 Patch P2 Inwd
Provide the recorded IC50 for the entries that follow.

CC(C)c1ccccc1Oc1ccc(C2CC(=O)N(Cc3ncccc3Cl)C2)c(CO)c1 (stereo not shown)    0.1 to 1 µM
NCc1cc(-c2ccccc2)ccc1N1CC[C@H](Oc2ccc(C(F)(F)F)cn2)C1    > 1 µM
CCc1ccccc1Oc1ccc(N2CC[C@H](Oc3ncccc3C)C2)c(CO)c1    < 0.01 µM
O=C(c1ccc(F)cc1)c1ccc(N2CC[C@H](Oc3ncccc3F)C2)c(CO)c1    0.1 to 1 µM
Cc1ccccc1N1CCC(Nc2ncc(C(F)(F)F)cc2Cl)C1 (stereo not shown)    > 1 µM

For the 2 compounds below, give their IC50 values.
1. O=C(c1ncccc1F)N1CCC(c2ccc(-c3ccccc3C3CC3)cc2CO)C1 (stereo not shown)
2. CCc1ccccc1C(O)c1ccc(N2CC[C@H](Nc3ncccc3Cl)C2)c(CO)c1 (stereo partly shown)

Response:
0.01 to 0.1 µM
> 1 µM

###

Biological target: hTRPV3 (Homo sapiens (Human))
Assay: Whole-cell patch clamp, hTRPV3 Phase 1 / Phase 2 currents
Assay type: cell-based
Conditions: Phase 2 current; read-out: hTRPV3 (nM) (Phase 2)
Could you please report measured IC50 for the items listed next?
Numbers only, in nM.

Use these answered entries as a reference point.
Cc1ccc(O[C@H]2CCN(c3ccc(-c4ccccc4C)nc3CO)C2)nc1    1120
NC(=O)c1cc(-c2ccccc2)ccc1N1CC[C@H](Oc2ccc3cc(Cl)ccc3n2)C1    585
OCc1cc(-c2ccccc2)ncc1N1CC[C@H](Oc2ccc(C(F)(F)F)cn2)C1    747
NC(=O)c1cc(-c2ccccc2)cnc1N1CC[C@@H](Oc2ncccc2Cl)C1    1600
OCc1cc(-c2ccccc2)ccc1N1CC[C@H](Nc2nc(C(F)(F)F)cs2)C1    496

Request: Please report the measured IC50 for `Cc1ccc(O[C@H]2CCN(c3ccc(Oc4ccccc4C)nc3CO)C2)nc1`
Response: 3270

###

What IC50 was measured for each of the following?
Biological target: hTRPV3 (Homo sapiens (Human), UniProt Q8NET8)
Experiment: Whole-cell patch clamp, hTRPV3 Phase 1 / Phase 2 currents
Assay type: cell-based
Conditions: Phase 1 current; read-out: hTRPV3 (nM) (Phase 1)

Answered examples (5):
O=C(O)c1cc(-c2ccccc2)ccc1N1CC[C@H](Oc2ccc(C(F)(F)F)cn2)C1    > 3200 nM
Cc1ccc(C(=O)c2ccc(N3CC[C@H](Oc4ncccc4Cl)C3)c(CCO)c2)cc1    ~225 nM
OCc1nc(-c2ncccn2)ccc1N1CC[C@H](Oc2ccc(C(F)(F)F)cn2)C1    > 3200 nM
CC(C)Oc1cc(-c2ccccc2)ccc1N1CC[C@H](Oc2ccc(C(F)(F)F)cn2)C1    > 3200 nM
O=C(c1ccc(N2CC[C@H](Oc3ccccn3)C2)c(CO)c1)c1ccccc1Cl    > 3200 nM

// for each molecule in input: emit IC50
1. CCc1ccccc1C(O)c1ccc(N2CC[C@H](Nc3ncccc3Cl)C2)c(CO)c1 (stereo partly shown)
2. CC(C)(C)NS(=O)(=O)c1cc(-c2ccccc2)ccc1N1CCC(Oc2ccc(C(F)(F)F)cn2)C1 (stereo in doubt)
3. NC(=O)c1ccc(-c2ccc(N3CC[C@H](Oc4ccc(C(F)(F)F)cn4)C3)c(CO)c2)cc1

Response:
["~1260 nM", "> 3200 nM", "> 3200 nM"]
